test.context: in ethanol, 313.15 K

compound	solubility (mole fraction)
OCC1(O)OC[C@@H](O)[C@@H](O)[C@H]1O (stereo partly specified)	0.0147

###

test.context: in sec-butanol, 283.15 K
recorded.metric: solubility (mole fraction)

compound	recorded.metric	measured
OCC1(O)OC[C@@H](O)[C@@H](O)[C@H]1O (stereo partly specified)	solubility (mole fraction)	0.001

###

test.context: in acetone, 293.15 K

compound	solubility (mole fraction)
OCC1(O)OC[C@@H](O)[C@@H](O)[C@H]1O (stereo partly specified)	0.00104

###

test.context: in n-butanol, 298.15 K

compound	solubility (mole fraction)
OCC1(O)OC[C@@H](O)[C@@H](O)[C@H]1O (stereo partly specified)	0.0024

###

test.context: in ethanol, 298.15 K
recorded.metric: solubility (mole fraction)

compound	measured
OCC1(O)OC[C@@H](O)[C@@H](O)[C@H]1O (stereo partly specified)	0.00746

###

test.context: in ethyl acetate, 303.15 K
recorded.metric: solubility (mole fraction)

compound	measured
OCC1(O)OC[C@@H](O)[C@@H](O)[C@H]1O (stereo partly specified)	0.00217

###

test.context: in 2-butanone, 313.15 K
recorded.metric: solubility (mole fraction)

compound	measured
OCC1(O)OC[C@@H](O)[C@@H](O)[C@H]1O (stereo partly specified)	0.0033

###

test.context: in methyl acetate, 313.15 K

compound	solubility (mole fraction)
OCC1(O)OC[C@@H](O)[C@@H](O)[C@H]1O (stereo partly specified)	0.00139

###

test.context: in ethyl formate, 303.15 K

compound	solubility (mole fraction)
OCC1(O)OC[C@@H](O)[C@@H](O)[C@H]1O (stereo partly specified)	0.00109

###

test.context: in ethanol, 318.15 K
recorded.metric: solubility (mole fraction)

compound	measured
OCC1(O)OC[C@@H](O)[C@@H](O)[C@H]1O (stereo partly specified)	0.018

###

test.context: in n-butanol, 288.15 K
recorded.metric: solubility (mole fraction)

compound	recorded.metric	measured
OCC1(O)OC[C@@H](O)[C@@H](O)[C@H]1O (stereo partly specified)	solubility (mole fraction)	0.00125

###

test.context: in methyl acetate, 323.15 K

compound	solubility (mole fraction)
OCC1(O)OC[C@@H](O)[C@@H](O)[C@H]1O (stereo partly specified)	0.00231

###

test.context: in isopropanol, 318.15 K
recorded.metric: solubility (mole fraction)

compound	measured
OCC1(O)OC[C@@H](O)[C@@H](O)[C@H]1O (stereo partly specified)	0.0112

###

test.context: in n-butanol, 323.15 K

molecule	solubility (mole fraction)
OCC1(O)OC[C@@H](O)[C@@H](O)[C@H]1O (stereo partly specified)	0.00952

###

test.context: in acetone, 313.15 K
recorded.metric: solubility (mole fraction)

compound	recorded.metric	measured
OCC1(O)OC[C@@H](O)[C@@H](O)[C@H]1O (stereo partly specified)	solubility (mole fraction)	0.00376
